tested on: MOLT-4 leukemia; test: NCI-60 one-dose screen, 48 h (100 = growth as untreated, 0 = no growth, -100 = all killed); details: 10 µM unless noted
This is part of a sample that, as a whole, favours compounds with a hit. Of some 83,000 tested, about 20% had one in any assay. The source made the active and inactive calls. The calls were made as follows: active = growth percent below 10; inactive = the rest.
Consider the following molecules and their measured growth readings.
outcome.measure: growth

CC[C@@H](c1ccc(O)c(O)c1)[C@@H](CC)c1ccc(O)c(O)c1; 59.9% (inactive)
CC(C)Sc1nc(-c2ccc(Br)cc2)c(C#N)c(N2CCCCC2)n1; 110% (inactive)
O=Cc1ccccc1C(=O)O; 98.6% (inactive)
CC(=O)N1N=C(c2ccc3c(c2)OCO3)CC1c1c(C)nn(-c2ccccc2)c1N(C)Cc1ccccc1 (stereo not given); 41.9% (inactive)
O=C(COc1cccc(/C=C2\Cc3ccccc3C2=O)c1)c1ccc(Cl)cc1; 107% (inactive)
O=C(Nc1nn2c(-c3cc(C(F)(F)F)cc(C(F)(F)F)c3)nnc2s1)C1CCCC1; -10.2% (active)
c1ccc(N2c3nc4ccccc4cc3Sc3cc4ccccc4nc32)nc1; 78% (inactive)
CC(C)CNc1nc(N=[N+]=[N-])nc(NCC(C)C)n1; 34.4% [100 µM] (inactive)
COc1ccc(NC(=O)c2ccccc2-c2ccccc2)c(C(N)=O)c1; 20% (inactive)
COC(=O)[C@H](Cc1cn(C)cn1)NC(=O)[C@H](Cc1ccccc1)NC(=O)Nc1cc(C(F)(F)F)cc(C(F)(F)F)c1; -55% [100 µM] (active)

###

Listing of entries alongside the reported growth.
test system: COLO 205 colon; test: NCI-60 one-dose screen, 48 h (100 = growth as untreated, 0 = no growth, -100 = all killed); conditions: 10 µM unless noted
This is part of a sample that, as a whole, favours compounds with a hit. Of some 83,000 tested, about 20% had one in any assay. Activity calls are given as the source filed them. Rule for the calls: active = growth percent below 10; inactive = the rest.
outcome.measure: growth

O=C(NCCNC(=O)Oc1cccc2ccccc12)Oc1cccc2ccccc12; 94.7% (inactive)
O=C(CC(C(=O)c1ccccc1)N1CCN(Cc2ccccc2)CC1)c1ccccc1 (configuration not stated); 70.3% (inactive)
COC(=O)C1(NC(=O)CNC(=O)OCc2ccccc2)CCCC1; 125% (inactive)
CCOC(CNCc1cc(C)c2[nH]c3ccccc3c2c1C)OCC; -25.4% (active)
CN(C)c1ncnc2c1ncn2C1CCCCO1 (configuration not stated); 98.3% (inactive)
CCCCc1ccc(C(N)=O)nc1; 118% (inactive)
CC1(C)CC2(C)CC(=O)C1C(C(=O)O)C2C(=O)O (configuration not stated); 107% (inactive)
Cc1ccc(S(=O)(=O)NCCN2c3nc4ccccc4cc3Sc3cc4ccccc4nc32)cc1; 113% (inactive)
CCCn1c(N)c(C(=O)CNc2ccc(I)cc2)c(=O)[nH]c1=O; 75.5% (inactive)
CCCCN1c2nc3ccccc3cc2Sc2cc3ccccc3nc21; 132% (inactive)
C/C=C(/C(=C/C)c1ccc(O)cc1)c1ccc(O)cc1; 73.9% (inactive)
c1ccc(-c2nc(Nc3nccnn3)c3ccccc3n2)cc1; 107% (inactive)

###

test system: SW-620 colon; assay: NCI-60 one-dose screen, 48 h (100 = growth as untreated, 0 = no growth, -100 = all killed); settings: 10 µM unless noted
Compounds without any hit were thinned out: in the full panel of roughly 83,000, 20% have a hit. Active and inactive are the calls of the source. Rule for the calls: active = growth percent below 10; inactive = the rest.
Entries and their growth values follow.
outcome.measure: growth

Cc1ccc(OCC(=O)Nc2ccc(Oc3ccccc3)cc2)c([N+](=O)[O-])n1; 96.8% (inactive)
N#CC(C#N)C(C#N)C#N; 99.1% (inactive)
C(#Cc1ccccc1C#Cc1ccccn1)c1ccc(OCCCCCCOc2ccc(C#Cc3ccccc3C#Cc3ccccn3)cc2)cc1; 62.6% (inactive)
COc1cc(NC(C)CCCN)c2nc(C)ccc2c1Oc1ccc(F)cc1 (configuration not stated); 67% (inactive)
CCCCCN1C(=O)CCC1=O; 111% (inactive)
Nc1ccc2c(c1)C(=O)c1cc(Cl)c(Cl)cc1-2; 101% (inactive)
COc1ccc2ncccc2c1Cc1c(OC)ccc2ncccc12; 40.5% (inactive)
COc1ccc2c(c1)sc1nc(-c3ccc(Br)cc3)cn12; 101% (inactive)
COc1c(Br)cc(C(c2cc(Br)c(OC)c(Br)c2)c2ccccc2C(=O)O)cc1Br; 99.9% (inactive)
Cc1sc2nc3c4ccccc4c(NCCCN(C)C)nn3c(=O)c2c1C; -43.7% (active)
O=C1C=CC(=O)N1c1ccccc1N1C(=O)C=CC1=O; 57.9% (inactive)
CCCCc1ccc(C(N)=O)nc1; -90% (active)
CCN(CC)c1ccc(C(=C2C=CC(=[N+](CC)Cc3cccc(S(=O)(=O)O)c3)C=C2)c2ccc(N(CC)Cc3cccc(S(=O)(=O)O)c3)cc2)cc1; 22.9% (inactive)
COc1ccc2c(c1)[n+](=O)c(C(=O)/C=C/c1cc(OC)c(OC)c(OC)c1)c(C)n2[O-]; 72.4% (inactive)
CC1CC=CCC1C1OCC(C)(C)CO1 (configuration not stated); 102% (inactive)
CC(=O)N1N=C(c2ccc(C(F)(F)F)cc2)CC1c1ccc2c(c1)OCO2 (configuration not stated); 88.4% (inactive)
CC1=C([Se]CC(OC(=O)[C@@H](CSSC(C)(C)C)NC(=O)C(C)(C)C)C(=O)NCCCCCC(=O)OCc2ccccc2)C(=O)c2ccccc2C1=O (some centres not stated); 9.84% (active)
N#Cc1c(NC(=O)c2ccco2)[n+]([O-])c2cc(Cl)c(Cl)cc2[n+]1[O-]; 119% (inactive)
O=C(N/N=C/c1cccc([N+](=O)[O-])c1)c1ccc(Br)o1; 116% (inactive)
COC(=O)[C@H](Cc1cnc[nH]1)NC(=O)[C@@H](NC(=O)Nc1cc(C(F)(F)F)cc(C(F)(F)F)c1)C(C)C; -48.2% [100 µM] (active)
COc1cc(-c2nc3sc4c(c3c(=O)[nH]2)CCCCCC4)cc(OC)c1OC; 30.3% (inactive)
O=C(/C=C/c1ccc(C(F)(F)F)cc1)c1ccc(Nc2nc(NCCO)nc(NCCO)n2)cc1; 1.28% (active)
NS(=O)(=O)c1ccc(-n2ncc3c(NC4CCCCC4)ncnc32)cc1; 113% (inactive)
COc1ccc(-c2nc3sc4c(c3c(=O)[nH]2)CCCCCC4)cc1; 29% (inactive)
CCOc1nc(-c2ccco2)n2nc(-c3ccco3)cc2n1; 107% (inactive)
O=Cc1ncc(-c2ccc(C(F)(F)F)cc2)c(NC2CCCCCC2)n1; -44.4% [100 µM] (active)
CC(NNC(=S)N1CCCCCC1)c1ccc2ccccc2n1 (configuration not stated); 36% (inactive)
CC(=O)Nc1ccc(C(=O)COc2cccc(/C=C3\CCc4ccccc4C3=O)c2)cc1; 47% (inactive)
COc1cc(/C=C/C(=O)CC(=O)/C=C/c2ccc(OC(=O)CCNC34CC5CC(CC(C5)C3)C4)c(OC)c2)ccc1OC(=O)CCNC12CC3CC(CC(C3)C1)C2; 8.69% (active)
CCCCCCCCCCNCCSS(=O)(=O)O; 81.8% (inactive)
Cc1cc2c(cc1C)[n+](Cc1ccc3ccccc3c1)cn2Cc1ccc2ccccc2c1; -84.1% (active)
COC(=O)C1(NC(=O)CNC(=O)OCc2ccccc2)CCCC1; 104% (inactive)
CCCCNCCCN(CCCC)CCCNCCCC; 101% (inactive)
CC(=O)c1ccccc1NC(=O)C(C)(c1ccccc1)c1ccccc1; 93.4% (inactive)
COc1ccc(C2CC(c3ccc4c(c3)OCO4)=NN2C=O)cc1 (configuration not stated); 104% (inactive)
OC(c1cc(-c2cccc(Cl)c2)nc2ccccc12)C1CCCCN1 (configuration not stated); -66.6% (active)
O=C1NCCc2c1noc2-c1ccccc1; 109% (inactive)
Nc1ccc2c(c1)Cc1cc(Cl)c(Cl)cc1-2; 38.1% (inactive)
Cc1ncc(C(=O)Nc2ccc(CN3CCN(C)CC3)c(C(F)(F)F)c2)cc1C#Cc1cncc2ncccc12; 59.6% (inactive)
O=C1NC(=O)/C(=C\c2ccco2)S1; 100% (inactive)
CCCCCCCSc1ncnc2[nH]ncc12; 61.9% (inactive)
COC(=O)[C@H](Cc1cn(C)cn1)NC(=O)[C@H](C)NC(=O)Nc1cc(C(F)(F)F)cc(C(F)(F)F)c1; -27.4% [100 µM] (active)

###

tested on: HT29 colon; assay: NCI-60 one-dose screen, 48 h; settings: 10 µM unless noted
The panel holds about 83,000 compounds, 20% with a hit somewhere; the sample as a whole holds those more often. The source made the active and inactive calls. Rule for the calls: active = growth percent below 10; inactive = the rest.
Outcome codes: active, inactive

O=C1OC2(c3ccccc31)c1ccccc1-c1ccccc12; inactive
Cn1cnc([N+](=O)[O-])c1Sc1nc(N)nc2nc[nH]c12; inactive
O=C(O)C1C(c2ccccc2)c2ccccc2C(O)C1CO (stereo unspecified); inactive
CCN(CC)c1ccc(/C=C/C(=O)c2cccc(NS(C)(=O)=O)c2)cc1; active
COc1ccc2c3c(ccc2c1)C(=O)/C(=C\O)CC3; inactive
COc1ccc(-c2ccc(O)c(C(=O)/C=C/c3cc(OC)c(OC)c(OC)c3)c2)cc1; inactive

The measurements presented in this section are drawn from PubChem BioAssay (NCI).
